Target: HLA-B*27:03
Experiment: IEDB peptide-MHC binding, purified MHC/competitive/fluorescence; filed as Kd, often an IC50 or EC50 that approximates it; bounds were set here for any values at or beyond the usual limits of such assays
Details: source organism: Homo sapiens
Result Type: Kd

-- ask Fill in the blank: the reported Kd of VTSSVSSGY is ____.
-- reply ≥ 20 µM

----------
Target: HLA-B*35:01
Experiment: IEDB peptide-MHC binding, purified MHC/direct/fluorescence; filed as Kd, often an IC50 or EC50 that approximates it; bounds were set here for any values at or beyond the usual limits of such assays
Conditions: source organism: Escherichia coli O157:H7
Result Type: Kd (µM)
Field format: number, assumed µM, no unit text.

-- ask Fill in the blank: the reported Kd of ITAGYNRYY is ____.
-- reply 0.861
